# Test system: HeLa cells
# assayText: Multiparameter fluorescence high information content analysis of cellular effects
# Format: cell-based
# Design: unit not given here
# protocolConditions: 24 h treatment
Reported Minimum detectable cellular change, Tubulin polymer intensity is given for each of the following molecules.

{"molecule": "C=CC=CC(C)C1OC(=O)C=CC=CC(C)C(O)CC(O)C=CC(C)C(O)C(C)CC(C)CCC(O)C1C (stereo not drawn) [Compound 59]", "result": "284 ± 108 (4)"}
{"molecule": "C=C/C=C\\[C@H](C)[C@H](O)[C@@H](C)[C@H](O)CC[C@H](C)C[C@H](C)[C@@H](O)[C@@H](C)/C=C\\[C@@H](O)C[C@H](O)[C@H](C)/C=C/C=C\\C(=O)OC [Compound 50]", "result": "219 ± 36 (4)"}
{"molecule": "C=C/C=C\\[C@H](C)[C@H](OC(N)=O)[C@@H](C)[C@H](O)[C@@H](C)C/C(C)=C\\[C@H](C)[C@@H](O)[C@@H](C)/C=C\\[C@@H](O)C[C@@H]1OC(=O)[C@H](C)[C@@H](O)[C@H]1C [discodermolide, reference compound]", "result": "64.6 ± 0.0 (2)"}

Next, consider the following molecule.
Field request: Minimum detectable cellular change, Tubulin polymer intensity | item: C=CC=CC(C)C1OC(=O)C=CC=CC(C)C(O)CC(O)C=CC(C)C(O)C(C)CC(C)CCC(O)C1C (stereo not drawn) [Compound 108] >5000 (4)
